tested on: MDA-MB-435; experiment: NCI tumour cell line growth inhibition, 48 h
The source made the active and inactive calls. Rule as the data show it: active = GI50 up to about 1.1 µM and inactive = higher.
Listed here are molecules together with their documented GI50.

chemical string | study target | GI50
COC(=O)[C@@H]1C[C@]2(Br)c3ccccc3N(S(=O)(=O)c3ccccc3)[C@@H]2N1C(=O)OC | MDA-MB-435 | > 100 µM (inactive)
O=S(=O)(Cc1nc2ccccc2s1)c1nc2ccccc2s1 | MDA-MB-435 | 15.2 µM (inactive)
N#Cc1c(N)sc2c1-c1ccccc1OC2 | MDA-MB-435 | 32.5 µM (inactive)
CN(C)c1ccc(/C=C(\C#N)C(N)=C(C#N)C#N)cc1 | MDA-MB-435 | > 100 µM (inactive)
CCn1c(CCl)nc2c1C(=O)c1ccccc1C2=O | MDA-MB-435 | 1.69 µM (inactive)
Cn1c(=O)c2c(ncn2Cc2ccc(O)c([N+](=O)[O-])c2)n(C)c1=O | MDA-MB-435 | > 100 µM (inactive)
